Test system: PA-1
Assay: Confirmatory qHTS for gynecologic anti-cancer compounds from libraries of approved drugs and bioactive compounds; also: nearly all actives have a fitted effect of over 55% in size
Conditions: gynecologic cancer cell panel viability, ATPlite luminescence, 48 h; series mostly up to 57.6 µM
Results filed as inconclusive are left out. Calls of active or inactive are those of the source. Calls follow the shape of the dose curve; as a rule, active = well fitted cell-killing curve with a large enough effect; inconclusive = small, poorly fitted or top-dose-only effect, or effect the other way; inactive = no such curve, though single readings can be large or run the other way.
Respond with a class label; see 1 for active, -1 for inactive

// known answers, use as guide
CCN1CCN(Cc2ccc(Nc3ncc(F)c(-c4cc(F)c5nc(C)n(C(C)C)c5c4)n3)nc2)CC1	1
Cc1nc(N)nc(N)c1-c1ccc(Cl)c(Cl)c1	1
COc1cc2nccc(Oc3ccc(NC(=O)Nc4cc(C)on4)c(Cl)c3)c2cc1OC	1
Cc1cc(Nc2nc(N[C@@H](C)c3ncc(F)cn3)ncc2Cl)n[nH]1	1

Then this compound:
Input line: Could you check what this test reported for OCc1ccc(-c2ccc(-c3ccc(CO)s3)o2)s1 ?
Output line: -1
